Entry source: the supplement of paper PMC8253809

# System: SUDIPGVI (diffuse intrinsic pontine glioma line)
# Assay Details: growth inhibition (% activity, log2 RLU normalised to DMSO / staurosporine); higher = more growth inhibition
# Experimental Parameters: 33 µM
// values below are reported growth inhibition
Metric Name: growth inhibition (%)

1. CCN(C)C(=O)Oc1cccc([C@H](C)N(C)C)c1
-2.42
2. Cc1cc(C(C#N)c2ccc(Cl)cc2)c(Cl)cc1NC(=O)c1cc(I)cc(I)c1O (stereo unspecified)
-3.36
3. Nc1nc(N)nc(NC2CC2)n1
2.19
4. C[C@]12CC[C@H]3[C@@H](CC[C@@]45O[C@@H]4C(O)=C(C#N)C[C@]35C)[C@@H]1CC[C@@H]2O
-0.488
5. CN1C2CC(O)CC1C1OC12 (stereo unspecified)
-0.226
6. O=S(=O)(F)Cc1ccccc1
1.21
